target: T1, CDK4 (Homo sapiens, UniProt P11802); assay: p16 activity assay with CDK4 (NanoBiT, cell line #11); format: cell-based; conditions: loss of function mutants
T1 construct: expressed in transfected cells; host or cells: HEK293 CDK4/CDK6 double-knockout cells stably expressing E2F1-Dp-1-LB (clone #11); early experiments in plain HEK293
T1 sequence (P11802 2-303): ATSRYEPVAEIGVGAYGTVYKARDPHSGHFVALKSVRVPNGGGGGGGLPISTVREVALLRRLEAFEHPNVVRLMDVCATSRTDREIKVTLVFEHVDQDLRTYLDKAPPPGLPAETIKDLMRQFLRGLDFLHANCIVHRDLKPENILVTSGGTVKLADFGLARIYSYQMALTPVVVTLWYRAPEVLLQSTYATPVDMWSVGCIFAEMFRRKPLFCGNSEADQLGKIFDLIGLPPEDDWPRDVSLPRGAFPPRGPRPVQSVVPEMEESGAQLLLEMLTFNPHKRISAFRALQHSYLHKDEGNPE

molecule	signal of p16 mutant (in words)
p16 H83Y: p16 (CDKN2A) mutant (protein) MEPAAGSSMEPSADWLATAAARGRVEEVRALLEAGALPNAPNSYGRRPIQVMMMGSARVAELLLLHGAEPNCADPATLTRPVYDAAREGFLDTLVVLHRAGARLDVRDAWGRLPVDLAEELGHRDVARYLRAAAGGTRGSNHARIDAAEGPSDIPD	close to the baseline
p16 A20P: p16 (CDKN2A) mutant (protein) MEPAAGSSMEPSADWLATAPARGRVEEVRALLEAGALPNAPNSYGRRPIQVMMMGSARVAELLLLHGAEPNCADPATLTRPVHDAAREGFLDTLVVLHRAGARLDVRDAWGRLPVDLAEELGHRDVARYLRAAAGGTRGSNHARIDAAEGPSDIPD	close to the baseline
p16 V126D: p16 (CDKN2A) mutant (protein) MEPAAGSSMEPSADWLATAAARGRVEEVRALLEAGALPNAPNSYGRRPIQVMMMGSARVAELLLLHGAEPNCADPATLTRPVHDAAREGFLDTLVVLHRAGARLDVRDAWGRLPVDLAEELGHRDDARYLRAAAGGTRGSNHARIDAAEGPSDIPD	close to the baseline
p16 P114L: p16 (CDKN2A) mutant (protein) MEPAAGSSMEPSADWLATAAARGRVEEVRALLEAGALPNAPNSYGRRPIQVMMMGSARVAELLLLHGAEPNCADPATLTRPVHDAAREGFLDTLVVLHRAGARLDVRDAWGRLLVDLAEELGHRDVARYLRAAAGGTRGSNHARIDAAEGPSDIPD	close to the baseline
